# System: Diglycosidase derived from P. multicolor
# PROTOCOL_SUMMARY: Reactivity toward various isoflavone glycosides (HPLC)
# Format: biochemical, Penicillium multicolor
# Parameters: unit not given here
# RECORDED_CONDITIONS: Reaction time 3 h; 55 °C, pH 4.0
Binned glucoside; ranges: low: < 2; medium: ≥ 2 and < 20; high: ≥ 20

1. O=C(O)CC(=O)OC[C@H]1O[C@@H](Oc2cc(O)c3c(=O)c(-c4ccc(O)cc4)coc3c2)[C@H](O)[C@@H](O)[C@@H]1O; medium
2. O=C(O)CC(=O)OC[C@H]1O[C@@H](Oc2ccc3c(=O)c(-c4ccc(O)cc4)coc3c2)[C@H](O)[C@@H](O)[C@@H]1O; high
3. O=c1c(-c2ccc(O)cc2)coc2cc(O[C@@H]3O[C@H](CO)[C@@H](O)[C@H](O)[C@H]3O)cc(O)c12; high
4. O=c1c(-c2ccc(O)cc2)coc2cc(O[C@@H]3O[C@H](CO)[C@@H](O)[C@H](O)[C@H]3O)ccc12; medium
5. CC(=O)OC[C@H]1O[C@@H](Oc2ccc3c(=O)c(-c4ccc(O)cc4)coc3c2)[C@H](O)[C@@H](O)[C@@H]1O; medium

Qu. Using the reported glucoside, which band applies to `COc1cc2c(=O)c(-c3ccc(O)cc3)coc2cc1O[C@@H]1O[C@H](CO)[C@@H](O)[C@H](O)[C@H]1O` ?
Ans. low

Qu. `CC(=O)OC[C@H]1O[C@@H](Oc2cc(O)c3c(=O)c(-c4ccc(O)cc4)coc3c2)[C@H](O)[C@@H](O)[C@@H]1O` , same question.
Ans. low

Qu. `COc1cc2c(=O)c(-c3ccc(O)cc3)coc2cc1O[C@@H]1O[C@H](COC(=O)CC(=O)O)[C@@H](O)[C@H](O)[C@H]1O` , same question.
Ans. medium

Qu. `COc1cc2c(=O)c(-c3ccc(O)cc3)coc2cc1O[C@@H]1O[C@H](COC(C)=O)[C@@H](O)[C@H](O)[C@H]1O` , same question.
Ans. medium

====

# System: Crude diglycosidase
# PROTOCOL_SUMMARY: Examination of temperature in the conversion into isoflavone aglycons by diglycosidase using soybean materials
# Format: biochemical, Penicillium multicolor IAM7153
# Parameters: concentration or dose not given beside the values
# RECORDED_CONDITIONS: 45 °C; heat treatment of enzyme: yes; 6 h
REPORTED_ENDPOINT: Decomposition efficiency of daidzin family in soymilk (%)
Expressed in %, but write only the number.

Here are 2 molecules together with their reported answers.
1. O=c1c(-c2ccc(O)cc2)coc2cc(O[C@@H]3O[C@H](CO)[C@@H](O)[C@H](O)[C@H]3O)ccc12 [daidzin]; 36.0
2. O=C(O)CC(=O)OC[C@H]1O[C@@H](Oc2ccc3c(=O)c(-c4ccc(O)cc4)coc3c2)[C@H](O)[C@@H](O)[C@@H]1O [malonyldaidzin, 6″-O-malonyldaidzin]; 55.8

Now look at this entry.
Qu. Item O=c1c(-c2ccc(O)cc2)coc2cc(O)ccc12 [daidzein] with Crude diglycosidase - Decomposition efficiency of daidzin family in soymilk?
Ans. 8.2

====

# System: β-Xylosidase derived from pectinase G
# PROTOCOL_SUMMARY: Reactivity toward various isoflavone glycosides (HPLC)
# Assay type: biochemical
# Set-up: unit not given here
# RECORDED_CONDITIONS: Reaction time 6 h; 55 °C, pH 4.0
REPORTED_ENDPOINT: aglycon
The answer should be written as a number, with no unit following it.

Here are 8 compounds together with their reported answers.
1. CC(=O)OC[C@H]1O[C@@H](Oc2cc(O)c3c(=O)c(-c4ccc(O)cc4)coc3c2)[C@H](O)[C@@H](O)[C@@H]1O; 0.5
2. O=c1c(-c2ccc(O)cc2)coc2cc(O[C@@H]3O[C@H](CO)[C@@H](O)[C@H](O)[C@H]3O)ccc12; 42.1
3. COc1cc2c(=O)c(-c3ccc(O)cc3)coc2cc1O[C@@H]1O[C@H](COC(C)=O)[C@@H](O)[C@H](O)[C@H]1O; 0
4. O=C(O)CC(=O)OC[C@H]1O[C@@H](Oc2cc(O)c3c(=O)c(-c4ccc(O)cc4)coc3c2)[C@H](O)[C@@H](O)[C@@H]1O; 2
5. CC(=O)OC[C@H]1O[C@@H](Oc2ccc3c(=O)c(-c4ccc(O)cc4)coc3c2)[C@H](O)[C@@H](O)[C@@H]1O; 2.3
6. O=c1c(-c2ccc(O)cc2)coc2cc(O[C@@H]3O[C@H](CO)[C@@H](O)[C@H](O)[C@H]3O)cc(O)c12; 1.8
7. COc1cc2c(=O)c(-c3ccc(O)cc3)coc2cc1O[C@@H]1O[C@H](CO)[C@@H](O)[C@H](O)[C@H]1O; 4.5
8. COc1cc2c(=O)c(-c3ccc(O)cc3)coc2cc1O[C@@H]1O[C@H](COC(=O)CC(=O)O)[C@@H](O)[C@H](O)[C@H]1O; 0.4

Now look at this entry.
Qu. Query: aglycon; subject: `O=C(O)CC(=O)OC[C@H]1O[C@@H](Oc2ccc3c(=O)c(-c4ccc(O)cc4)coc3c2)[C@H](O)[C@@H](O)[C@@H]1O`
Ans. 3.3

====

# Test system: Crude diglycosidase
# PROTOCOL_SUMMARY: Examination of pH in the conversion into isoflavone aglycons by diglycosidase using soybean materials
# Format: biochemical, Penicillium multicolor IAM7153
# Design: concentration or dose not given beside the values
# RECORDED_CONDITIONS: pH6.6; heat treatment of enzyme: no; reaction time 0 h
# Decomposition efficiency of daidzin family in defatted soybean annotations
Expressed in %, but write only the number.

Qu. Query: Decomposition efficiency of daidzin family in defatted soybean; subject: `O=c1c(-c2ccc(O)cc2)coc2cc(O[C@@H]3O[C@H](CO)[C@@H](O)[C@H](O)[C@H]3O)ccc12`
Ans. 43.6

Qu. `O=C(O)CC(=O)OC[C@H]1O[C@@H](Oc2ccc3c(=O)c(-c4ccc(O)cc4)coc3c2)[C@H](O)[C@@H](O)[C@@H]1O` , same question.
Ans. 43.1

Qu. `O=c1c(-c2ccc(O)cc2)coc2cc(O)ccc12` , same question.
Ans. 13.2

====

# Tested on: Crude diglycosidase
# PROTOCOL_SUMMARY: Examination of pH in the conversion into isoflavone aglycons by diglycosidase using soybean materials
# Type: biochemical, Penicillium multicolor IAM7153
# RECORDED_CONDITIONS: pH4.8, heat treatment of enzyme no, reaction time 0 h, 55° C.
REPORTED_ENDPOINT: Decomposition efficiency of glycitin family in soymilk
The answer should be written as a number, with no unit following it.

Qu. Query: Decomposition efficiency of glycitin family in soymilk; subject: COc1cc2c(=O)c(-c3ccc(O)cc3)coc2cc1O[C@@H]1O[C@H](COC(=O)CC(=O)O)[C@@H](O)[C@H](O)[C@H]1O [malonylglycitin, 6″-O-malonylglycitin]
Ans. 43.2

Qu. COc1cc2c(=O)c(-c3ccc(O)cc3)coc2cc1O[C@@H]1O[C@H](CO)[C@@H](O)[C@H](O)[C@H]1O [glycitin] , same question.
Ans. 50.7

Qu. COc1cc2c(=O)c(-c3ccc(O)cc3)coc2cc1O [glycitein] , same question.
Ans. 6.2

====

# Tested on: Crude diglycosidase
# PROTOCOL_SUMMARY: Examination of pH in the conversion into isoflavone aglycons by diglycosidase using soybean materials
# Assay type: biochemical, Penicillium multicolor IAM7153
# RECORDED_CONDITIONS: pH3.5; heat treatment of enzyme: no; reaction time 0 h
# Decomposition efficiency of daidzin family in soymilk annotations
Expressed in %, but write only the number.

Here are 2 compounds together with their reported answers.
1) O=C(O)CC(=O)OC[C@H]1O[C@@H](Oc2ccc3c(=O)c(-c4ccc(O)cc4)coc3c2)[C@H](O)[C@@H](O)[C@@H]1O [malonyldaidzin, 6″-O-malonyldaidzin]; 55.1
2) O=c1c(-c2ccc(O)cc2)coc2cc(O)ccc12 [daidzein]; 10.5

Now look at this entry.
Qu. Item O=c1c(-c2ccc(O)cc2)coc2cc(O[C@@H]3O[C@H](CO)[C@@H](O)[C@H](O)[C@H]3O)ccc12 [daidzin] with Crude diglycosidase - Decomposition efficiency of daidzin family in soymilk?
Ans. 34.4

====

# Tested on: Crude diglycosidase
# PROTOCOL_SUMMARY: Examination of pH in the conversion into isoflavone aglycons by diglycosidase using soybean materials
# Type: biochemical, Penicillium multicolor IAM7153
# Design: concentration or dose not given beside the values
# RECORDED_CONDITIONS: pH7.8; heat treatment of enzyme: yes; reaction time 6 h
REPORTED_ENDPOINT: Decomposition efficiency of daidzin family in defatted soybean (%)
Expressed in %, but write only the number.

1. O=c1c(-c2ccc(O)cc2)coc2cc(O)ccc12; 21.7
2. O=C(O)CC(=O)OC[C@H]1O[C@@H](Oc2ccc3c(=O)c(-c4ccc(O)cc4)coc3c2)[C@H](O)[C@@H](O)[C@@H]1O; 36.7

Now look at this entry.
Qu. Query: Decomposition efficiency of daidzin family in defatted soybean; subject: `O=c1c(-c2ccc(O)cc2)coc2cc(O[C@@H]3O[C@H](CO)[C@@H](O)[C@H](O)[C@H]3O)ccc12`
Ans. 41.6
